- STUDY SYSTEM: CYP2D6 (Homo sapiens, UniProt P10635)
- Construct: Pooled human microsomes and selective CYP probe substrates were used; from tissue; host or cells: pooled human liver microsomes
- Sequence (P10635 whole entry): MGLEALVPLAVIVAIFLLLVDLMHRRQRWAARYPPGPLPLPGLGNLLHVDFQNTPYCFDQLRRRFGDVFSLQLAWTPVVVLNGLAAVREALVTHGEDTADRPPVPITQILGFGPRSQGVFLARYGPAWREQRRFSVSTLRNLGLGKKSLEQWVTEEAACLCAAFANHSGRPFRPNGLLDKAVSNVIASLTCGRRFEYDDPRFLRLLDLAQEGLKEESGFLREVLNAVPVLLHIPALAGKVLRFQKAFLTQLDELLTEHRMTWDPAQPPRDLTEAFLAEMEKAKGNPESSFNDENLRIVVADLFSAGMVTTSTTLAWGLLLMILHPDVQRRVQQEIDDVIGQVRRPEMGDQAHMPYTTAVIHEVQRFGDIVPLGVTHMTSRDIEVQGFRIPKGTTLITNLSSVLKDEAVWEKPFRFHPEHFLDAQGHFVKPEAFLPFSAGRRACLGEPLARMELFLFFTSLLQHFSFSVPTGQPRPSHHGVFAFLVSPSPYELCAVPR
- ASSAY: Time-dependent inhibition of CYP2D6 in human liver microsomes
- Type: in vitro ADME
- TEST CONDITIONS: pooled human liver microsomes; CYP2D6, 25 μM, human liver microsomes, time zero; read-out: % Activity NADPH T0
- Description: An assessment of the time-dependent Inhibitory Potential of the test compounds against Principal Human Cytochrome P450 Isozymes using Human Liver Microsomes was also carried out using standard methods (Grimm et al, Drug Metab. Dispos., July; 37(7):1355-70. doi: 10.1124/dmd.109.026716, 2009). […] LC-MS/MS was used to quantify metabolite formation. […]
Parameter activity at 0 min, 25 µM: see the listing below.
Return type: number; implicit unit %.

Examples with answers:
C[C@H]1CC[C@H](N2CC(=O)N(Cc3ccc(F)c(F)c3)C3(CN(C(N)=O)C3)C2=O)CC1 : 98
CC(C)N1CC(=O)N(Cc2ccc(Cl)c(F)c2)C2(CN(c3cccnn3)C2)C1=O : 92
Cc1cc(CN2C(=O)CN([C@H]3CC[C@H](C)CC3)C(=O)C23CN(C(N)=O)C3)ccc1F : 112
C[C@H]1CC[C@H](N2CC(=O)N(Cc3ccc(Cl)cc3)C3(CN(C(N)=O)C3)C2=O)CC1 : 103
CC(C)N1CC(=O)N(Cc2ccc(C(F)(F)F)cc2)C2(CN(c3cccnn3)C2)C1=O : 96

Now turn to the next compound.
Name the recorded activity at 0 min, 25 µM for `C[C@H]1CC[C@H](N2CC(=O)N(Cc3ccc(F)c(Cl)c3)C3(CN(C(N)=O)C3)C2=O)CC1` .
80
